These entries and their values trace back to paper PMC9482650.

biological target: GRID2IP_2, A4D2P6; assay: holdup assay; design: key: below the threshold = too weak to quantify, mostly under pKd 3.1 to 4; conditions: plain residues with an end cap or a label only (N-terminal biotin on a linker: ado-ado)
Sequence (A4D2P6 272-370): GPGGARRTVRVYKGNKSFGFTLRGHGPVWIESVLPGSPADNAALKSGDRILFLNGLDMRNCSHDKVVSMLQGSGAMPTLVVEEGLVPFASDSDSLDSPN
Entries and their pKd
property: pKd

>  <binder>
HLSTRQGTCV [ATRNL1, Q5VV63]

>  <property>
pKd

>  <value measured>
4.05

$$$$
>  <binder>
PALKNGQYWV [CSPG4, Q6UVK1]

>  <property>
pKd

>  <value measured>
3.75

$$$$
>  <binder>
SGDGKTSVWI [GJC1, P36383]

>  <property>
pKd

>  <value measured>
4.33

$$$$
